From: patent US20250304576A1

Target: IKBKB (IKKβ) (Homo sapiens, UniProt O14920)
Construct: purchased Life Technologies (assay performed by the vendor)
Sequence (O14920 1-756): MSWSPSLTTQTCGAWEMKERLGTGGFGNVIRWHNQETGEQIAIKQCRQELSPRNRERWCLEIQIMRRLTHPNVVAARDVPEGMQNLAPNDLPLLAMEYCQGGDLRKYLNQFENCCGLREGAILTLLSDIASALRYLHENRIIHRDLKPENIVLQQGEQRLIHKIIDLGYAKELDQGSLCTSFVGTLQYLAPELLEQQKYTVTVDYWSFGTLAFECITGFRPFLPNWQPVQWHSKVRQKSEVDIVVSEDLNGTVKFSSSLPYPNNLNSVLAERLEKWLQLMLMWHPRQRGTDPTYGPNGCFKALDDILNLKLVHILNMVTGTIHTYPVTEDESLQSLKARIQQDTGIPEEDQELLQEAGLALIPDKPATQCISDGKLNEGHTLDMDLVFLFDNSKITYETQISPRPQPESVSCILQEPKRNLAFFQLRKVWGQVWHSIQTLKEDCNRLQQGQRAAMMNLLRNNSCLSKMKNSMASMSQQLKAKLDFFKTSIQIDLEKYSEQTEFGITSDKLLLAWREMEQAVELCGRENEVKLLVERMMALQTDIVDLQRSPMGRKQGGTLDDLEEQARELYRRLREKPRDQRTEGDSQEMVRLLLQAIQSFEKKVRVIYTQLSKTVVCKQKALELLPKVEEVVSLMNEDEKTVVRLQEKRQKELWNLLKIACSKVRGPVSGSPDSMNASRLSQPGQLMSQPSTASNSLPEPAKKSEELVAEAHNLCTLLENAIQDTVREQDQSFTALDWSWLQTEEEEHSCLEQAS
Experiment: Z'-LYTE IKKβ assay (Life Technologies)
Format: biochemical
Conditions: Life Technologies assay
assay.metric: pIC50
# pIC50 is unitless: minus log10 of the molar concentration; print number only

INSERT INTO assay_data (mol_smiles, assay_metric, data_value) VALUES
  ('Nc1nccc(-c2ccc3[nH]nc(N)c3c2)c1C#CCCC(=O)N1CCOCC1', 'pIC50', 6.58);

Task: State, in one line, measured pIC50 of "Nc1cc(-c2cc(-c3ccoc3)c3[nH]nc(N)c3c2)ccn1"
Result: 6.87

Task: Give the value of pIC50 reported for the following: "Nc1nccc(-c2ccc3[nH]nc(N)c3c2)c1C#CC1(O)CCCCC1"
Result: 6.69

Task: Item "Nc1nccc(-c2ccc3[nH]nc(N)c3c2)c1C#CCCN1CCCCC1" : provide pIC50
Result: 6.60

Task: Return value of pIC50 for input "Nc1nccc(-c2ccc3[nH]nc(N)c3c2)c1C#CC1CCCCC1" , no commentary.
Result: 6.47

Task: Report pIC50 for "Nc1nccc(-c2ccc3[nH]nc(N)c3c2)c1C#CC1CCCC1"
Result: 6.69

---

Biological target: Recombinant IKKα (Homo sapiens)
Construct: purchased Millipore, Dundee, UK
Assay: DELFIA IKKα kinase assay (apparent Ki, Cheng-Prusoff)
Format: biochemical
Conditions: DELFIA assay (first line of an example)
Procedure: IKKα and IKKβ inhibitory activity was determined using three different assays: a dissociation enhanced ligand fluorescent immunoassay (DELFIA) based on the protocol of HTScan™ IKKβ Kinase Assay (Cell Signaling Technology, USA); an Adapta IKKα assay (performed by Life Technologies); a Z′-LYTE™ IKKβ assay (performed by Life Technologies). […]
assay.metric: pKi
As a rule, pKi stands for the negative log10 of the concentration, concentration in M.

Answered examples (2):
INSERT INTO assay_data (compound, system_tested, assay_metric, data_value) VALUES
  ('CC(C)(O)C#Cc1cc(-c2ccnc3[nH]ccc23)cc2c(N)n[nH]c12', 'Recombinant IKKα (Homo sapiens)', 'pKi', 7.09),
  ('CC(C)(C)C#Cc1cc(-c2ccnc(Nc3ncccn3)c2)cc2c(N)n[nH]c12', 'Recombinant IKKα (Homo sapiens)', 'pKi', 6.69);

Task: Indicate its recorded pKi; the compound in question is "Nc1n[nH]c2c(C#CCCCN3CCOCC3)cc(-c3ccnc4[nH]ccc34)cc12"
Result: 7.64

Task: Given "CC(C)(O)C#Cc1cc(-c2ccnc(NC(=O)C3CC3)c2)cc2c(N)n[nH]c12" , respond with its pKi.
Result: 7.26

Task: Report pKi for "Nc1n[nH]c2ccc(-c3ccnc4[nH]c(CC5CCOCC5)cc34)cc12"
Result: 7.96

Task: Indicate the recorded pKi value for this compound: CC(C)(C)C#Cc1cc(-c2ccnc(NC3CCOC3)c2)cc2c(N)n[nH]c12 (centres unmarked)
Result: 7.35

Task: Answer with the recorded pKi of CC(C)(C)C#Cc1cc(-c2ccnc(NS(C)(=O)=O)c2)cc2c(N)n[nH]c12 [Example 193] only.
Result: 5.26

---

Measured pKi values are reported for all entries that follow.
Target: Recombinant IKKα (Homo sapiens, UniProt O15111)
Construct: purchased Millipore, Dundee, UK
Sequence (O15111 whole entry): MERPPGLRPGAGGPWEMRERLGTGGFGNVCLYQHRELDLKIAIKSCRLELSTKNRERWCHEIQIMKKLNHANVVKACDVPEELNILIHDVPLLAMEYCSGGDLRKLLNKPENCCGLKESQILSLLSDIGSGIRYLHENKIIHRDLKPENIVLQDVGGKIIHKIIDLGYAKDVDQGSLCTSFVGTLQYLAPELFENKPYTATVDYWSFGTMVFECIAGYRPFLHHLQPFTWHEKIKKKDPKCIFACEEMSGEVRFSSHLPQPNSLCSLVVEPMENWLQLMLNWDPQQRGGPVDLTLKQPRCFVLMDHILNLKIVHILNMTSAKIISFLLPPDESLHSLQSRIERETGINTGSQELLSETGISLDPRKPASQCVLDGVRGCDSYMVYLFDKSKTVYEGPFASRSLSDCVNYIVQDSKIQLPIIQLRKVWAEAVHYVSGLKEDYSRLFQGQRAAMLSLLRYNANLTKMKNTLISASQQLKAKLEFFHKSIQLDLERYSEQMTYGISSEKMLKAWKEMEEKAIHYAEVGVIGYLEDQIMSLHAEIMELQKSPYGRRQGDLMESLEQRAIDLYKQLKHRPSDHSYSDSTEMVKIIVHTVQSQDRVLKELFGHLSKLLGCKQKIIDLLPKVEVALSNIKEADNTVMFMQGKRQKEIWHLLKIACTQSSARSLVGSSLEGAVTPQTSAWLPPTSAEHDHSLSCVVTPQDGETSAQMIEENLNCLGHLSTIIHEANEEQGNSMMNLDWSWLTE
Experiment: DELFIA IKKα kinase assay (apparent Ki, Cheng-Prusoff)
Assay type: biochemical
Settings: DELFIA assay (first line of an example)
Description: IKKα and IKKβ inhibitory activity was determined using three different assays: a dissociation enhanced ligand fluorescent immunoassay (DELFIA) based on the protocol of HTScan™ IKKβ Kinase Assay (Cell Signaling Technology, USA); an Adapta IKKα assay (performed by Life Technologies); a Z′-LYTE™ IKKβ assay (performed by Life Technologies). […]
In textbook form, pKi equals minus log to base ten of the concentration in mol/L.

See these solved cases before continuing.
INSERT INTO results (molecule, system_tested, data_value) VALUES
  ('CC(C)(C)C#Cc1cc(-c2ccnc(NC(=O)Nc3ccccc3)c2)cc2c(N)n[nH]c12 [Example 189]', 'Recombinant IKKα (Homo sapiens, UniProt O15111)', 6.95),
  ('Cn1cc(Nc2cc(-c3cc(C#CC(C)(C)C)c4[nH]nc(N)c4c3)ccn2)cn1 [Example 303]', 'Recombinant IKKα (Homo sapiens, UniProt O15111)', 7.44),
  ('Nc1n[nH]c2c(C#Cc3ccccc3)cc(-c3ccnc4[nH]c(CCN5CCOCC5)cc34)cc12 [Example 281]', 'Recombinant IKKα (Homo sapiens, UniProt O15111)', 7.33);

Task: Provide only the value of recorded pKi for CC(C)(C)NCc1cc2c(-c3ccc4[nH]nc(N)c4c3)ccnc2[nH]1 [Example 248]
Result: 6.69

---

# Lookup of reported pKi keyed by entry
Target: Recombinant IKKα (Homo sapiens)
Construct: purchased Millipore, Dundee, UK
Assay: DELFIA IKKα kinase assay (apparent Ki, Cheng-Prusoff)
Type: biochemical
Details: DELFIA assay (first line of an example)
Give only the number. pKi is defined as minus log10 of concentration in molar units.

Answered examples (4):
INSERT INTO assay_data (molecule, system_tested, assay_metric, data_value) VALUES
  ('COC(=O)Nc1cc(-c2cc(-c3ccc(N)cc3)c3[nH]nc(N)c3c2)ccn1', 'Recombinant IKKα (Homo sapiens)', 'pKi', 8.22),
  ('CN(C)CCCNC(=O)c1cc2c(-c3ccc4[nH]nc(N)c4c3)ccnc2[nH]1', 'Recombinant IKKα (Homo sapiens)', 'pKi', 8.10),
  ('Nc1n[nH]c2ccc(-c3ccnc4[nH]c(CN5CCCCCC5)cc34)cc12', 'Recombinant IKKα (Homo sapiens)', 'pKi', 7.04),
  ('CCOC(=O)Nc1cc(-c2cc(C#CC(C)(C)C)c3[nH]nc(N)c3c2)ccn1', 'Recombinant IKKα (Homo sapiens)', 'pKi', 7.70);

Task: Give recorded pKi. "CC(C)N(CCNC(=O)c1cc2c(-c3ccc4[nH]nc(N)c4c3)ccnc2[nH]1)C(C)C"
Result: 8.05

Task: Fill in reported pKi for this entry: "CC(C)CCNC(=O)c1cc2c(-c3ccc4[nH]nc(N)c4c3)ccnc2[nH]1"
Result: 8.52

Task: Report pKi, nothing else, for this molecule: "Nc1n[nH]c2c(C#CCO)cc(-c3ccnc4[nH]ccc34)cc12"
Result: 6.44

---

Target: Recombinant IKKα (Homo sapiens, UniProt O15111)
Construct: purchased Millipore, Dundee, UK
Experiment: DELFIA IKKα kinase assay (apparent Ki, Cheng-Prusoff)
Type: biochemical
Settings: non-italicised figure: DELFIA assay
Description: IKKα and IKKβ inhibitory activity was determined using three different assays: a dissociation enhanced ligand fluorescent immunoassay (DELFIA) based on the protocol of HTScan™ IKKβ Kinase Assay (Cell Signaling Technology, USA); an Adapta IKKα assay (performed by Life Technologies); a Z′-LYTE™ IKKβ assay (performed by Life Technologies). […]
pKi by entry:
Friendly reminder that pKi comes from taking -log10 of the concentration in mol/L.

Observe how each entry below is paired with its result.
INSERT INTO assay_data (compound, data_value) VALUES
  ('CCC(=O)Nc1cc(-c2cc(C#CC(C)(C)C)c3[nH]nc(N)c3c2)ccn1 [Example 165]', 8.15),
  ('Nc1cc(-c2cc(-c3ccncc3)c3[nH]nc(N)c3c2)ccn1 [Example 128]', 7.46),
  ('Nc1n[nH]c2ccc(-c3ccnc(NCC4CC4)c3)cc12 [Example 15]', 6.77),
  ('Nc1n[nH]c2ccc(-c3ccnc(NC(=O)Nc4cccnc4)c3)cc12 [Example 69]', 7.38),
  ('CC(C)c1cccc(NC(=O)Nc2cc(-c3ccc4[nH]nc(N)c4c3)ccn2)c1 [Example 53]', 7.85);

Task: Write down pKi measured for item Nc1n[nH]c2ccc(-c3ccnc(N[C@H]4CC[C@H](O)CC4)c3)cc12 [Example 24]
Result: 7.00

Task: Give pKi for CC(C)(C)C#Cc1cc(-c2ccnc(NC3COC3)c2)cc2c(N)n[nH]c12 [Example 155]
Result: 7.82

Task: Retrieve pKi measured for COCCCNc1cc(-c2ccc3[nH]nc(N)c3c2)ccn1 [Example 26] and print it.
Result: 7.47

Task: Please report pKi for the following compound: Nc1n[nH]c2ccc(-c3ccnc(NC(=O)NCCc4ccccc4)c3)cc12 [Example 46]
Result: 6.24
